Just for reference, patent US11168093B2 is where these values come from.

pIC50: −log10 of the molar value.
Metric: pIC50

Lookup: Form field: pIC50 recorded for CC1NCC=C1c1cc2c(Nc3ccc4scnc4c3)ccnc2s1 (centres unmarked) [Example 25] with RIPK2 enzyme (Homo sapiens (Human), UniProt O43353) (enter value)
Sequence (O43353 whole entry): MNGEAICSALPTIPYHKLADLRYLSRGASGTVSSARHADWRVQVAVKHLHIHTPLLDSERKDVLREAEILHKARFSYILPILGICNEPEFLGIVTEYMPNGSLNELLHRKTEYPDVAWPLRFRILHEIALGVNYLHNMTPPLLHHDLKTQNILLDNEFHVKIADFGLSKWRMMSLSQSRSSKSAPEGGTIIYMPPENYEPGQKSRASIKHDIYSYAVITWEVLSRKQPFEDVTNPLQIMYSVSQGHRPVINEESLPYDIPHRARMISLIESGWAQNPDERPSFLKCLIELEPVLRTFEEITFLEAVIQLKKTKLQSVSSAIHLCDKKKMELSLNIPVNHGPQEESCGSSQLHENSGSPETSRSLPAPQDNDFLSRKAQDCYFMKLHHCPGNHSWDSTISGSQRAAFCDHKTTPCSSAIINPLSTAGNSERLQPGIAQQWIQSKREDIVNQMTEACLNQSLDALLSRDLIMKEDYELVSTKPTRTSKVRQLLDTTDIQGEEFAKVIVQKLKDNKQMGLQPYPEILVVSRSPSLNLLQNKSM
Found: ≥ 8.00

Lookup: Form field: pIC50 recorded for CN1CC=C(c2cc3c(Nc4ccc5scnc5c4)ccnc3s2)C1(C)C [Example 34] with RIPK2 enzyme (Homo sapiens (Human), UniProt O43353) (enter value)
Found: ≥ 8.00

Lookup: Form field: pIC50 recorded for CC1NCCCC1c1cc2c(Nc3ccc4scnc4c3)c(F)cnc2s1 (centres unmarked) [Example 119] with RIPK2 enzyme (Homo sapiens (Human), UniProt O43353) (enter value)
Found: 7.30 to 7.70

Lookup: Form field: pIC50 recorded for CC1C(c2cc3c(Nc4cc5ncsc5cc4F)c(F)cnc3s2)CCCN1C (single isomer, unassigned) [Example 123d] with RIPK2 enzyme (Homo sapiens (Human), UniProt O43353) (enter value)
Found: 7.30 to 7.70

Lookup: Form field: pIC50 recorded for CN1CCCC(c2cc3c(Nc4ccc5scnc5c4)ccnc3s2)CC1 (centres unmarked) [Example 109] with RIPK2 enzyme (Homo sapiens (Human), UniProt O43353) (enter value)
Found: ≥ 8.00

Lookup: Form field: pIC50 recorded for CC1C(c2cc3c(Nc4c(F)cc5scnc5c4F)c(F)cnc3s2)CCCN1C (single isomer, unassigned) [Example 127a] with RIPK2 enzyme (Homo sapiens (Human), UniProt O43353) (enter value)
Found: 7.30 to 7.70

Lookup: Form field: pIC50 recorded for C[C@@H]1NCCC[C@@H]1c1cc2c(Nc3ccc4scnc4c3F)ccnc2s1 [Example 57b] with RIPK2 enzyme (Homo sapiens (Human), UniProt O43353) (enter value)
Found: ≥ 8.00

Lookup: Form field: pIC50 recorded for C[C@@H]1[C@H](c2cc3c(Nc4c(F)cc5scnc5c4F)ccnc3s2)CCCN1C [Example 70b] with RIPK2 enzyme (Homo sapiens (Human), UniProt O43353) (enter value)
Found: ≥ 8.00

Lookup: Form field: pIC50 recorded for CCN1CCC[C@@H](c2cc3c(Nc4c(F)cc5scnc5c4F)ccnc3s2)[C@H]1C [Example 73b] with RIPK2 enzyme (Homo sapiens (Human), UniProt O43353) (enter value)
Found: ≥ 8.00

Lookup: Form field: pIC50 recorded for CC1NCCCC1c1cc2c(Nc3ccc4scnc4c3)c(F)cnc2s1 (single isomer, unassigned) [Example 119b] with RIPK2 enzyme (Homo sapiens (Human), UniProt O43353) (enter value)
Found: ≥ 8.00

Lookup: Form field: pIC50 recorded for C[C@@H]1NCCC[C@H]1c1cc2c(Nc3ccc4scnc4c3F)ccnc2s1 [Example 57a] with RIPK2 enzyme (Homo sapiens (Human), UniProt O43353) (enter value)
Found: 7.70 to 8.00

Lookup: Form field: pIC50 recorded for CN1CCC(c2cc3c(Nc4ccc5scnc5c4)ccnc3s2)C12CCOC2 (centres unmarked) [Example 43] with RIPK2 enzyme (Homo sapiens (Human), UniProt O43353) (enter value)
Found: 7.30 to 7.70

Lookup: Form field: pIC50 recorded for CC1(C)C(c2cc3c(Nc4ccc5scnc5c4F)ccnc3s2)CCN1CCO (centres unmarked) [Example 92] with RIPK2 enzyme (Homo sapiens (Human), UniProt O43353) (enter value)
Found: ≥ 8.00

Lookup: Form field: pIC50 recorded for CCN1CCC(c2cc3c(Nc4ccc5scnc5c4)ccnc3s2)C1(C)C (centres unmarked) [Example 37] with RIPK2 enzyme (Homo sapiens (Human), UniProt O43353) (enter value)
Found: ≥ 8.00

Lookup: Form field: pIC50 recorded for CC1NCCCC1c1cc2c(Nc3cc4ncsc4cc3F)c(F)cnc2s1 (centres unmarked) [Example 122a] with RIPK2 enzyme (Homo sapiens (Human), UniProt O43353) (enter value)
Found: ≤ 7.30

Lookup: Form field: pIC50 recorded for C[C@@H]1NCCC=C1c1cc2c(Nc3cc4ncsc4cc3F)ccnc2s1 [Example 49b] with RIPK2 enzyme (Homo sapiens (Human), UniProt O43353) (enter value)
Found: ≥ 8.00

Lookup: Form field: pIC50 recorded for CC1C(c2cc3c(Nc4ccc5scnc5c4F)c(F)cnc3s2)CCCN1C (single isomer, unassigned) [Example 125c] with RIPK2 enzyme (Homo sapiens (Human), UniProt O43353) (enter value)
Found: ≥ 8.00
